Exercise: for every item that follows, state its recorded Log KML Ca.
- experimentalProtocol: Formation Constant (Log KML) of metal chelant complex with calcium
- Format: physicochemical
- assaySetup: formation constant for calcium, concentrations in mol/dm^3, logarithm
Give bare numbers.

List reported Log KML Ca for each of these compounds:
1. C[C@H](N)C(=O)O
2. N[C@@H](CO)C(=O)O
3. O=C(O)CC(NCCNC(CC(=O)O)C(=O)O)C(=O)O (centres unmarked)
4. NCC(=O)O

A)
1: 1.3; 2: 1.4; 3: 4.6; 4: 1.1

So for `N[C@@H](Cc1c[nH]cn1)C(=O)O` , the logged Log KML Ca turned out to be 1.2

Hey, just so you know, these numbers are from patent US9642787B2.
